# EXPERIMENT DESCRIPTION: JC-1 mitochondrial signal, unstimulated adipocytes – cell-based, JC-1 fluorescence, 3T3-L1 adipocytes, 24 h, 100 nL compound, profiling panel (AID 1168); further: test concentration not given here
# TEST CONDITIONS: JC-1 mitochondrial fluorescence, higher = more signal, called active from +8 up or from −8 down
Entries and their measured z-score follow.
// print number alone

Some compounds with recorded z-score:
CCCC=C(CCC)[C@@H](NS(=O)(=O)c1ccccc1)c1ccc(C(F)(F)F)cc1 : -0.634
CN(C)C(=O)[C@@]1(CCC(=O)OC(C)(C)C)N=C(c2ccc(OCCCO)cc2)O[C@H]1c1ccccc1N=[N+]=[N-] : -0.371

So for Cc1ccc(S[C@]2(C(=O)O)CC(=O)N(C3CCCCC3)[C@@H]2c2ccc(CO)cc2)cc1 , the logged z-score turned out to be 0.144

Reported z-score ( COC(=O)[C@@]1(Cc2ccc(F)cc2)[C@@H]2[C@@H](CC(=O)[C@H]2CC(=O)C(=O)N2CCCC2)CN1C(=O)c1ccccc1 ) = -1.52

----------
# EXPERIMENT DESCRIPTION: FRG1 expression reporter modulators in myotubes – cell-based, C2C12 myotubes, firefly/Renilla luciferase, luminescence, FRG1 inhibition for FSHD, primary screen (AID 1084)
# TEST CONDITIONS: FRG1 promoter luciferase, higher = more signal, called active from +8 up or from −8 down
ENDPOINT NAME: z-score
Form rule: numeric answer, no unit written next to it.

z-score measured on C=CC[C@]1(C(=O)N2CCOCC2)N=C(c2ccc(OCCCO)cc2)O[C@H]1c1ccccc1CN=[N+]=[N-] = -1.34

Summary for this compound, CO[C@H]1O[C@H](CO)[C@@H](OC(=O)Nc2ccc(C(F)(F)F)cc2)[C@H](OC(=O)Nc2ccccc2)[C@H]1OC(=O)Nc1ccccc1 : z-score is 2.74

Form field z-score, entry Cc1ccc(S[C@]2(C(=O)NCCN3CCOCC3)CC(=O)N(C3Cc4ccccc4C3)[C@@H]2c2ccc(CO)cc2)cc1 : -0.611

Sure, the documented z-score for O=C1O[C@H](c2ccccc2)[C@H](c2ccccc2)N2[C@H]1[C@@H](C(=O)N1CCN(c3ncccn3)CC1)[C@]1(C(=O)Nc3ccc(C#CCCO)cc31)[C@H]2c1ccc(OCCO)cc1 is 0.0862

The reported value for COc1ccc([Si](C)(C)[C@H]2[C@H](CCn3cc(CCO)nn3)O[C@@]3(C(=O)N(Cc4cccc(N5C(=O)c6cccc7cccc5c67)c4)c4ccccc43)[C@@H]2C)cc1 in terms of z-score is -3.54

// z-score value for CCCN1C(=O)[C@@H]2Cc3c([nH]c4ccccc34)[C@@H](c3cccc(O)c3)N2C1=O : 0.85

Value of z-score reported for the compound CCCC=C(CCC)[C@@H](NS(=O)(=O)c1ccccc1)c1ccc(C(F)(F)F)cc1 is -2.28

Query COC(=O)[C@]1(Cc2ccccc2CN=[N+]=[N-])N=C(c2ccc(OCCCO)cc2)O[C@@H]1c1ccccc1 yields z-score of -2.44

GET /value?item= O=C1C[C@@](C(=O)O)(c2ccc([N+](=O)[O-])cc2)[C@@H](c2ccc(CO)cc2)N1CC12CC3CC(CC(C3)C1)C2 &field=z-score returns -2.54

For this compound ( CC(C)CNC(=O)[C@@]1(c2ccc([N+](=O)[O-])cc2)CC(=O)N(C(C)C)[C@@H]1c1ccc(CO)cc1 ), measured z-score is -0.696

The compound listed as COC(=O)[C@@]1(Cc2ccc(F)cc2)[C@H]2c3cc(C(=O)N(C)C)n(Cc4ccc(C)c(F)c4F)c3C[C@H]2CN1C(=O)c1ccccc1 shows z-score equal to 0.55

For record C=CCOC(=O)[C@@H]1[C@H]2C(=O)O[C@H](c3ccccc3)[C@H](c3ccccc3)N2[C@H](c2ccc(OCCOC(=O)[C@H]3C[C@H]4C(=O)N[C@@H](Cc5ccccc5)C(=O)N4[C@H]3c3cccc(OCCO)c3)cc2)[C@@]12C(=O)Nc1ccc(I)cc12 the listed z-score is 2.41

Data point: OCCCC1=CC(c2cccs2)N(Cc2cccc(OC(F)(F)F)c2)CC1 (centres undefined) ; z-score = 0.67

The compound identified as O=C(Nc1cc(Br)ccc1C(=O)NCc1cccc(O)c1)c1ccccc1 registered its z-score at -1.07

----------
# EXPERIMENT DESCRIPTION: budding yeast growth changes without added modifier – OD600, strain BY4716, 24 h, basal condition, primary screen (AID 1173)
# TEST CONDITIONS: S. cerevisiae BY4716 growth, OD600, 24 h; higher = more signal, called active from +8 up or from −8 down
If the reported z-score equals or exceeds 0.4, assign y. If not, assign n.

CN(C)C(=O)[C@@]1(CCC(=O)OC(C)(C)C)N=C(c2ccc(OCCCO)cc2)O[C@H]1c1ccccc1N=[N+]=[N-] : n
COc1ccc([Si](C)(C)[C@H]2[C@H](CC(=O)N3CCC[C@H]3CO)O[C@@]3(C(=O)N(Cc4ccc(N5C(=O)c6cccc7cccc5c67)cc4)c4ccccc43)[C@@H]2C)cc1 : n
CC(C)(C)OC(=O)CC[C@]1(C(=O)O)COC(c2ccc(OCCCO)cc2)=N1 : n
CC[C@@H]1[C@@H]2C3C(=O)N(CC)C(=O)C3CC(=O)[C@@H]2[C@H](c2ccc(C)cc2)N1S(=O)(=O)c1ccc(C)cc1 (some centres not stated) : n
C#CCOC(=O)N[C@H](C=CCCCC)c1ccccc1 : y

Moving on to another compound below.
Ask: Kindly determine if z-score recorded for CC(C)C[C@@H]1NC(=O)[C@@H]2C[C@H](C(=O)NCCCC[N+](C)(C)C)[C@H](c3cccc(OCCO)c3)N2C1=O is above or exactly 0.4.
Result: y

----------
Listing: composite z-score of selected molecules
# EXPERIMENT DESCRIPTION: probe aShh binding to arrayed compounds – biochemical, biotinylated probe, 635/667 nm fluorescence, primary screen (AID 1114);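 further: probe is biotin-labelled aShh protein from a stem cell growth factor screen; measures binding of labelled protein to compounds printed on the slide; score merges feature fluorescence at 667 nm with signal-to-noise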
# TEST CONDITIONS: small-molecule microarray, higher = more signal
// print number alone

Worked examples follow.
COc1cc(NN2C(C(O)c3ccc(I)cc3)C=CC3C(=O)N(C)C(=O)C32)cc(OC)c1OC (centres undefined) : 0.289
CCCC[C@H]1OB(O)C[C@H]2C1=C(COc1ccccc1)Cn1c(=O)n(-c3ccccc3)c(=O)n12 : -0.16
COCCOC(=O)N1C(=O)[C@@]2(c3cc(C#CCCO)ccc31)[C@H](c1ccc(OCCO)cc1)N1[C@H](c3ccccc3)[C@H](c3ccccc3)OC(=O)[C@H]1[C@@H]2C(=O)N1CCc2cc(OC)c(OC)cc2C1 : -0.0904

We next turn to a different molecule, shown below.
Per the records, this molecule ( CCCN1C(=O)[C@@]2(Cc3ccccc3)N=C(c3ccc(OCCCO)cc3)O[C@H]2c2ccccc21 ) has composite z-score equal to 0.195

----------
# EXPERIMENT DESCRIPTION: optical density change of DRC41 E. coli – strain DRC41, OD650, 24 h, E. coli filamentation project, primary screen (AID 1093);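 further: MC1000 strain lacking acrAB efflux and sulA so SOS filamentation is blocked; test concentration not given here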
# TEST CONDITIONS: E. coli DRC41 growth, higher = more signal, called active from +8 up or from −8 down
ENDPOINT NAME: z-score
# print the numeric value only

Value of measured z-score for the entry CC(C)C[C@@H]1NC(=O)[C@@]23C(=O)N[C@@H](Cc4ccccc4)C2[C@H](C)[C@@]2(C)O[C@H]2C3/C=C/C/C=C\CNC(=O)[C@@H]2CCCN2C1=O (some centres undefined) : -0.762

Consider COCCOC(=O)N1C(=O)[C@@]2(c3cc(C#CCCO)ccc31)[C@H](C(=O)NC[C@H](O)c1ccccc1)[C@H]1C(=O)O[C@H](c3ccccc3)[C@H](c3ccccc3)N1[C@@H]2c1ccccc1OCCO . Its measured z-score is 0.636

The reported value for NCCCCCCNC(=O)[C@H]1C[C@H]2C(=O)N3CCC[C@H]3C(=O)N2[C@H]1c1ccc(O)cc1 in terms of z-score is 0.181

The compound CCCC=C(CCC)[C@@H](NS(=O)(=O)c1ccccc1)c1ccc(C(F)(F)F)cc1 showed z-score equal to -0.644

----------
# MEASURED TARGET: Calmodulin-1 (Homo sapiens)
# EXPERIMENT DESCRIPTION: small molecules binding Ca-loaded calmodulin-1 – biochemical, small-molecule microarray, Cy5-labelled CALM1, plus calcium, artefact control for SMM control-protein annotation, profiling panel (AID 1112);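 further: score merges spot fluorescence with signal to noise from triplicate slides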
# TEST CONDITIONS: Cy5-CALM1 binding fluorescence, higher = more signal
# key: entry, value: composite z-score
Answer with the value's number alone.

Check out these entries, answers already filled in.
CCOC(=O)C1=CC[C@@H](c2cccc(Br)c2)N(S(=O)(=O)c2ccc(C)cc2)[C@H]1c1ccc([N+](=O)[O-])cc1 : 0.69
CC(C)C[C@@H]1NC(=O)[C@@H]2C[C@H](C(=O)NCCCC[N+](C)(C)C)[C@H](c3cccc(OCCO)c3)N2C1=O : 0.348

We now examine a further compound.
According to the records, this compound NC(=O)NCC#Cc1ccc2c(c1)[C@]1(C(=O)N2)[C@H](c2ccc(OCCO)cc2)N2[C@H](c3ccccc3)[C@H](c3ccccc3)OC(=O)[C@H]2[C@@H]1C(=O)N1CCCCCCC1 displays composite z-score of 1.2

This collection of values is drawn from PubChem BioAssay.
